pIC50: −log10 of the molar value. Counter-ions that a name gives are not always drawn.
Recorded pIC50 values (TNF-α converting enzyme (TACE) (Homo sapiens, UniProt P78536)) are given below.
Parameter measured: pIC50

Completed entries (count: 2):
C#CCOc1ccc(S(=O)(=O)C2(C(=O)NO)CCN(Cc3ccc(Cl)cc3)CC2)cc1 [Example 29] : 6.90
CC#CCOc1ccc(S(=O)(=O)C2(C(=O)NO)CCN(Cc3ccc(C(N)=O)cc3)CC2)cc1 [Example 79, hydrochloride] : 7.15

(a) CC#CCOc1ccc(SCC2(C(=O)NO)CCN(C(=O)OC(C)(C)C)CC2)cc1 [Example 30]
(b) CC#CCOc1ccc(S(=O)(=O)CC2(C(=O)NO)CCN(S(=O)(=O)c3ccccc3)CC2)cc1 [Example 59]
(c) CC#CCOc1ccc(S(=O)(=O)CC2(C(=O)NO)CCN(Cc3ccc(Cl)s3)CC2)cc1 [Example 47]
Sort the molecules on pIC50; start with the lowest figure. The response must list the labels following the requested ordering.
c, a, b
(c: 6.64, a: 6.99, b: 7.27)

(A) CC#CCOc1ccc(S(=O)(=O)C2(C(=O)NO)CCN(Cc3ccc(F)cc3)CC2)cc1 [Example 7]
(B) CC#CCOc1ccc(S(=O)(=O)C2(C(=O)NO)CCN(C(=O)N3CCCC3)CC2)cc1 [Example 67]
Could you determine which record has the numerically smaller pIC50? Candidates: A and B Please indicate the selected item by its label.
A

All figures here come from patent US6753337B2.
